Molecular target: recombinant human CK2 (Homo sapiens)
Sequence (P68400 whole entry): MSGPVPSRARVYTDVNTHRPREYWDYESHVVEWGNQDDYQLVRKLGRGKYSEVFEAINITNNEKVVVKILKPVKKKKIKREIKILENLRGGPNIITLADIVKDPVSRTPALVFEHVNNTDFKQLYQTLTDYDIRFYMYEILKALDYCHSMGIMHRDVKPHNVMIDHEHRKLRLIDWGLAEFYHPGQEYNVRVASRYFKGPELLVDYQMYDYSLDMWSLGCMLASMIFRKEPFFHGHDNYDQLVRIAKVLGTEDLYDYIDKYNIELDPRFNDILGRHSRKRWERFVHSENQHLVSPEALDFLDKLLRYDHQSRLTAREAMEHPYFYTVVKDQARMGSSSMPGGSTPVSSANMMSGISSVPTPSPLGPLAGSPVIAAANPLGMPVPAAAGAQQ
Sequence (P67870 whole entry partner): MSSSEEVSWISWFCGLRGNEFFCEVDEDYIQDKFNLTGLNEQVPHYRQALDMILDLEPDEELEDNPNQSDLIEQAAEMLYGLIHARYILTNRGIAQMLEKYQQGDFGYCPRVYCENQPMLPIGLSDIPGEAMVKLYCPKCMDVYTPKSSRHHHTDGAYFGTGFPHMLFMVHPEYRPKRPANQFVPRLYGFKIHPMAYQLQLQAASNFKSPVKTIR
Assay: Cell-free CK2 assay
// classify: if (IC50 < 30 nM) class 1 else class 0

>>> discrete_label("O=C(O)c1ccc2c(c1)nc(-c1ccsc1)c1ccncc12")
"class 1"
>>> discrete_label("CC(=O)Nc1cccc(-c2nc3cc(C(=O)NCCN4CCCC4)ccc3c3cnccc23)c1")
"class 0"
>>> discrete_label("O=C(O)c1ccc2c(c1)nc(-c1cccc(F)c1)c1ccncc12")
"class 1"
>>> discrete_label("Cn1cc(-c2nc3cc(C(=O)O)ccc3c3cnc(NC4CC4)nc23)cn1")
"class 1"
>>> discrete_label("O=C(O)c1ccc2c(c1)nc(-c1ccc(F)cc1)c1ccncc12")
"class 0"
>>> discrete_label("Cn1cc(-c2nc3cc(C(=O)O)ccc3c3cnccc23)cn1")
"class 1"
>>> discrete_label("CC(=O)Nc1cccc(-c2nc3cc(C(=O)O)ccc3c3cnccc23)c1")
"class 0"
